assayText: soluble fraction after stress (log2 fold change); higher = more stays soluble; pooled small domains, quantitative proteomics
conditionParameters: stress: 50 degC
Would you kindly list soluble fraction (log2) for each of these sequences?
Numbers only.

Illustrative cases are given below, each with its answer.
- sequenceCode: "HMSSRSLTYSDFIERVDAGQVDAVTLDGERIVIRAKDGNTYVAIKPQGEDVTGSLTRDLIAKGVDVEAEPQ"
  experimentalReadout: "soluble fraction (log2)"
  reading: 0.0928
- sequenceCode: "HMKKILLGDVNLDGKVDVNDVTLLQRYIAGETEVITSKDALTATNFNKDGNIDVLDVTDIQTFIANSE"
  experimentalReadout: "soluble fraction (log2)"
  reading: 0.0836
- sequenceCode: "HMKEFEINSQWKPSLEVYDILSVKGGISRNFIEDSIPEFVLYWRGRGDKSNTWDSKFVQHVKRQWNFYSGL"
  experimentalReadout: "soluble fraction (log2)"
  reading: -3.32
- sequenceCode: "HMDEDLQEALRKLNPIQANERKLLLKMLEQHRWNVSSVAKAFDVSRNTLYRRLHKLHIPLSNPSE"
  experimentalReadout: "soluble fraction (log2)"
  reading: -0.417
- sequenceCode: "HMRQLISIYNNTIGADEIDQMRNILSNSGYKEGVDFAVQTADKKSVILVRRDLAGMIQEQLSGEGLPS"
  experimentalReadout: "soluble fraction (log2)"
  reading: 0.0201
- sequenceCode: "HMTHAISKTYAVTGEQLKNGFTLTHTFANGSTRRVDVYPGSRSGKVIAVRNTTDDTTEWIRIVEG"
  experimentalReadout: "soluble fraction (log2)"
  reading: 0.0444
- sequenceCode: "HMSVLSEQIKEQLMEDIFHKKYKAGDRIVESALARELGVSQASVREALRSLIAMGFLENEPFKGITVR"
  experimentalReadout: "soluble fraction (log2)"
  reading: 0.0703
- sequenceCode: "HMNLNESVELGQELLSQALAQLGIRGELSPSTIDKLLAESSAKSMEELYADIGIGKRMPALVARHIFGLMD"
  experimentalReadout: "soluble fraction (log2)"
  reading: -0.43
- sequenceCode: "HMAYSEEDRRRVREELLTTALKLMSTQGIQHTTVEQVYRSVGISRSFFYAFFPTKEDLIVEAL"
  experimentalReadout: "soluble fraction (log2)"
  reading: 0.117
- sequenceCode: "HMQLASILDDIPGIGKKRKENLLTHFGSFSKIQSADIDALAEVPGISRDLAETIHTYLKTHQ"
  experimentalReadout: "soluble fraction (log2)"
  reading: 0.0967

Could you report soluble fraction (log2) for every entry in the following list?
1. HMPLLELPDDFYPAWKPKTIYVQGQRIMLDGVAFEAKWWTQGDNPASGQADPGSSPWRTLTQEEIAKLLE
2. HMSKSIELMNEIKKYIEEYYLQYRQSPSTTKIAEAVGIARGTAYKYLVEMSERNMIEYDGQEISTEVTRKY
3. HMRTVAERYGLTAGQWRVLELLTQGKTNRQIAEMLDVTEGTVKIHVSAIFKAMKVTNRTQALLLAKKH
4. HMRPDSFEAGEAEAGSRLDRLLAARLGIPRNQVQQWIGGGRVTVDAEPVRASLVVRAGMRIAWDPPPPP
5. HMDHAHWEEHEVKLLLTLAIQEKEKFNWNQFGLTREGWRNIYPHFPQYSRKQINNKFDFLKQKYRAWKDS

Output line:
[-0.901, -0.0213, -0.558, -0.0768, -1.84]

###

assayText: soluble fraction after stress (log2 fold change); higher = more stays soluble; pooled small domains, quantitative proteomics
conditionParameters: stress: 50 degC
experimentalReadout: soluble fraction (log2)

Check out these entries, answers already filled in.
- sequenceCode: "HMFPELDEEEQKITKLLQAQNDLPANIIAVKTALNIGTTQAKLFSLEMKGVVKPYAGGFYHLL"
  reading: -0.25
- sequenceCode: "HMNPSPYLRRHLSGDWGDLDEDDRRSNDAALASGEARLLSSYQVDPDLKLWIITEWDRSVTTLLLPSE"
  reading: -0.0802
- sequenceCode: "HMKTLLSMNIKNLRKKKNMTLEELAEKVGTSKQTIQRYESGKISNIPSDKIELLAKYLDTTPAKLMGW"
  reading: 0.441
- sequenceCode: "HMVFRFELQPSSATPLYRQIVEQVTRAVAAGVLRDGEELPSVRAVAQEYVINPMTVSKAYSLLEAQSI"
  reading: -0.349
- sequenceCode: "HMLTLAVPNSINMRLDKYLSENIDYLSRSKIQGLINDGKVTINGENEKSSYKLNGDESIVIYYEE"
  reading: -0.0746

List the reported soluble fraction (log2) of each sequence below.
1. HMPLNAFDVAGYRLGYGGGYFDRTLAALSPRPLAVGVGFEINRLESIRPEAHDQRLDWIVTENGAFRPA
2. HMGGTTLIAKQATVTGDIQFSSNLDIEGRVVGAISVEPGKEAMLHVVEGGSVEGEIRVPSAVINGKVTGDI
3. HMIADSSSIHQDAKQQLHSYLRTNIQPLMRAGKQLDLKDILHHVTIRKPKLVQQLGMKQVQHMVQVLLD
4. HMGGVEWLTHPIGPRDSLQVLARAGLEARPTSDGDYEIYGQERWPQRDQARLMGWLRRFGQWVWQALYDK
5. HMSDEIQLQFIQISIFKDHPWADMQIKDMNIIPDLLIVMILRDGERIIPNGNTRIMPGDMVIITAMSANT

Output line:
-0.867
0.101
0.224
-0.378
-2.89

Input line: Need soluble fraction (log2), item HMGPVALGVTDGATYFSSVTITFRRGTAVLDGEPIASGHTVYKSGAHSLTLTAGGKTRTIAFTMDT
Output line: -4.23

###

assayText: soluble fraction after stress (log2 fold change); higher = more stays soluble; pooled small domains, quantitative proteomics
conditionParameters: stress: 50 degC
Kindly state soluble fraction (log2) for each of the entries shown.
Answers are plain numbers.

These recorded examples may help you get a feel for the data.
- sequenceCode: "HMDTETLIDKYQLNASEAAVLRFMDKNRDSLRDLGIRDVARASYVSTATIVNMAKKIGYSGYSELVFAYGS"
  reading: -1.09
- sequenceCode: "HMDYRSMSGLQKAALLIMSVGEETAAKLFQLMHDDEIREISQTMANLGTVNATVIERLFVEFADAISS"
  reading: -0.966
- sequenceCode: "HMTPVSQIATKDIEEKIDSLSDEYKDPFILHFKGFKYKEIADQLDIPIGTVKSRIFIARKKLIDLLPDY"
  reading: -0.115
- sequenceCode: "HMSEMLPFDEARRQFERDYLVQLLKLTSGNVSQAARLARRNRTDFYALLGRHQLEPASFKPE"
  reading: -0.298
- sequenceCode: "HMGMLATFVTSAKVPDDVVYAITKEVFENLDEFKKLHPALEGLTRETMLEGLTAPIHPGALKYYKEAGLM"
  reading: -0.522
- sequenceCode: "HMKEQYTELDWDKVQVNDKVMIKDLNQQVTILSLPDKNNALYIQMGMIKTKVKKEKLAVYNPQLA"
  reading: -0.185
- sequenceCode: "HMANYTVNAYNNGGTGGSVNMRSGPSTNDGIVVRVPHGATVTGTKSGTWSYMTYNTYTGYMMSVYLDEQS"
  reading: -0.157
- sequenceCode: "HMELRSPMPGLIIEIPVSKGDIIKKDQSLIILEAMKMENVLTSPINGKIADIKVNVQDTVEKNNLLITFEN"
  reading: -0.164

For every listed record, write down its soluble fraction (log2).
1. HMKKAITMGDIITVKELSEKIGIQVAEIIKKLMGLGILATINKELDYDTANVIASEFHIELERK
2. HMKNEYAMVIQVNGKLRGNMLVSADLEQKDIERMALDNEDIKRFISHENDVKKMIFVPKKLINIVT
3. HMNKKEIISVLEKIIPPSQIKNINIFGSELVIDLNIDNPSLHAKKKLEKSIMSSFDENLKIIVNFSVE
4. HMNYLDVNIPVTSAVWMGKQLPEMGTLIYLTPDKDVEGMLFIKQATKDKPDGEYIEAKVLGYKEGRVLFDF

Output line:
[-0.00712, -0.351, -0.00924, -0.547]

###

Provide the reported soluble fraction (log2) of each item.
assayText: soluble fraction after stress (log2 fold change); higher = more stays soluble; pooled small domains, quantitative proteomics
conditionParameters: stress: 50 degC

- sequenceCode: "HMNVWGLSERELEATRLLIEGFSSKEASARMGISPSTVRSLWGRARAKMGVDSIEDARELVA"
  reading: -0.236
- sequenceCode: "HMDSLELADEVGRVSEALQELRPHQREVLELSLVHGRSHQQISEKTGLALGTVKSHARRGLMRVREMLGV"
  reading: -0.445
- sequenceCode: "HMGERVDGVVKFFNGQKGFGFIQREDGGPDAFVHISAVERAGMAGLDEGQRVSFELELDRRGKQAAINLTP"
  reading: 0.00122
- sequenceCode: "HMKALEGMRTVFTLADLATEPVTVEITVLEAFKYTTTLEIVQRPVLREWMTNPSMLIRVYHDASTAE"
  reading: 0.144
- sequenceCode: "HMQISGSEELEKIVQTVLEKNTDVVEEYKSGKTKVFAFLMGQVMKESRGKANPRLAKDILEKFLA"
  reading: -0.0362

Give measured soluble fraction (log2) for every item shown.
1. HMGTIEQAFKGKAPGSAHLYDRARAVLAGGVTHDTRIHAPFPIMVQRALGARKWDVDGNEYIDY
2. HMHPTEKNLTSLLADGSFYMNQNKLETAYDTFTKTIELDPSWAEAWNKRATVLYLMGKYELSQADIDQV
3. HMVSVGDIFAGRIISNENGHLLLQLLDGSKISAQTVTDLKYNIGDVLNLEIIEEKQGLIFVRQT
4. HMIERVLRTEEHIEAFAGEEVEAKLFAPIDGKKTLRGILGGIEDGRVILTVGDTEYRIEHAKISRLTTVFD
5. HMVGDMLTQKDSEGLTAYLYQQGIISQREMLLLNGILKDRVLTGMEKGQRDSVRASMVQHLLAMLNMM
6. HMLSPPWYEYHRKVQAMFGRDPEVHIKDLDDLGDGKFSYMILVYNKEKAEAIKAILPQKVEMGNVTIETAI
7. HMGRRERKKLQSRRAIIEAAVTEFKEKGFREASVADIMTRADLGLGTFYNYFQSKEDILMSLLS

Output line:
[0.0863, -0.0645, -0.516, -0.122, -0.848, 0.361, -0.0676]

List the reported soluble fraction (log2) of each sequence below.
1. HMELARLRPELDGNDIMRILGVPPGPVVGRAYTYLLELRINQGELGRERVTQLLLDWAAAEGISA
2. HMLRPMVAILNKNISKGQVISEDYIKFEVRPERQIHGAYHDISEVLGRKTKNNIAAGTILKVRHLDT
3. HMTGEEVLIMLGEKMKLIRNYNGYSQRQIAEILKIERSTYASYETGRNRPDIFAVQRFAKIFNVSVDYIL
4. HMLMNADVLVKYQEDHWIVISEKASQASDTFDKKEQAVERAKEIAKNKNSSVKVYKQDGTLQDTFDYS
5. HMGEPQAWNELIGNLLRQWEARQTGWTPARKREALDRVLGAADPAALYTRLQGLLKSWTQAMTDADA
6. HMYTGSEGMAGLEGRAVTEVGPEAGTVLVKGEYWQARSDEPIATDRKIRVIRLEGLRLRVAEIHPEG

Output line:
1. -2.02
2. -0.201
3. -0.118
4. 0.122
5. -1.7
6. -0.0371

Dear colleague, could you send me soluble fraction (log2) for each of the items below? Thanks.
1. HMSQDTLIENGKVFLIHKVVAGQTLYGLSKAYNITIEDIIKYNPQAENGIKIGEDIKIFLKEE
2. HMVVVPDVKGLKIEEAAEFFKNNNLHYNVIDSVFSKDVEPGAIVELSPLAGSKVKEGRIVFITVNALTS
3. HMYSSIIGIAFTRAENKPAAPTGGSYSNPHPVDGNWKAAPYDGDGNLWYSIRHFNENVDIQDREWSDPTLG
4. HMGQISDDGALKKLASEVLAANPQALADWKAGKQQAVSFLVGQAMKASKGRGDAALLGELIRAALD

Output line:
1. -0.432
2. -0.651
3. -0.24
4. 0.0134
